I'd appreciate it if you could supply Activity values for the items below.
test system: DNA; assay: Binding affinity to calf thymus DNA assessed as hypochromicity at 20 uM after 2 hrs by UV-Vis absorption titration analysis; format: nucleic-acid assay; conditions: Bos taurus
Form entry: enter the amount, then its unit.

Quick one: Activity of `COc1ccc2cc3[n+](cc2c1OCCOCCN1CCCCC1)CCc1cc2c(cc1-3)OCO2` ? 19%

Quick one: Activity of `COc1ccc2cc3[n+](cc2c1OCCN1CCCCC1)CCc1cc2c(cc1-3)OCO2` ? 21%

Quick one: Activity of `COc1ccc2cc3[n+](cc2c1OCCN1CCOCC1)CCc1cc2c(cc1-3)OCO2` ? 17%

Quick one: Activity of `COc1ccc2cc3[n+](cc2c1OCCOCCN1CCOCC1)CCc1cc2c(cc1-3)OCO2` ? 21%

Quick one: Activity of `COc1ccc2cc3[n+](cc2c1OCCOCCOCCN1CCOCC1)CCc1cc2c(cc1-3)OCO2` ? 25%

Quick one: Activity of `COc1ccc2cc3[n+](cc2c1OCCOCCOCCN1CCCCC1)CCc1cc2c(cc1-3)OCO2` ? 21%

* * *

I'd appreciate it if you could supply pIC50 values for the items below.
test system: KB; experiment: Cytotoxicity against human KB cells after 48 hrs by MTT assay; format: functional, cell-based
// scale note: pIC50 = -log10(conc_M); give the bare number

Quick one: pIC50 of COc1ccc2cc3[n+](cc2c1O)CCc1cc2c(cc1-3)OCO2 [BERBERRUBINE CHLORIDE] ? 5.16

Quick one: pIC50 of `COc1ccc2cc3[n+](cc2c1OCCN1CCCCC1)CCc1cc2c(cc1-3)OCO2` ? 4.77

Quick one: pIC50 of `COc1ccc2cc3[n+](cc2c1OCCOCCOCCN1CCCCC1)CCc1cc2c(cc1-3)OCO2` ? 4.47

* * *

test system: KB; assay: Cytotoxicity against human KB cells after 48 hrs by MTT assay; assay type: functional, cell-based
metric: IC50 (µM)
Supply the numeric figure in µM, leaving out any unit text.

Quick one: IC50 of `COc1ccc2cc3[n+](cc2c1OCCOCCN1CCOCC1)CCc1cc2c(cc1-3)OCO2` ? 9.93

Quick one: IC50 of `COc1ccc2cc3[n+](cc2c1OCCOCCOCCN1CCOCC1)CCc1cc2c(cc1-3)OCO2` ? 10

Quick one: IC50 of COc1ccc2cc3[n+](cc2c1OC)CCc1cc2c(cc1-3)OCO2 [BERBERINE CHLORIDE] ? 6.03

Quick one: IC50 of `COc1ccc2cc3[n+](cc2c1OCCOCCN1CCCCC1)CCc1cc2c(cc1-3)OCO2` ? 19.7

Quick one: IC50 of `COc1ccc2cc3[n+](cc2c1OCCN1CCOCC1)CCc1cc2c(cc1-3)OCO2` ? 5.46

* * *

tested on: BGC-823; assay: Cytotoxicity against human BGC823 cells after 48 hrs by MTT assay; type: functional, cell-based; settings: BGC-823, 48 h
pIC50: −log10 of the molar value.
Decision: pIC50 compared against 5; not below it gives Yes, below it gives No.

Confirm if pIC50 reported for the molecule `COc1ccc2cc3[n+](cc2c1OCCN1CCOCC1)CCc1cc2c(cc1-3)OCO2` is 5 or above. Yes

Confirm if pIC50 reported for the molecule COc1ccc2cc3[n+](cc2c1OC)CCc1cc2c(cc1-3)OCO2 [BERBERINE CHLORIDE] is 5 or above. Yes

Confirm if pIC50 reported for the molecule `COc1ccc2cc3[n+](cc2c1OCCOCCN1CCCCC1)CCc1cc2c(cc1-3)OCO2` is 5 or above. No

Confirm if pIC50 reported for the molecule `COc1ccc2cc3[n+](cc2c1OCCOCCOCCN1CCCCC1)CCc1cc2c(cc1-3)OCO2` is 5 or above. No
